A collection of molecules and their measured EC50
Test system: TNFα
ASSAY NAME: cells
Format: cell-based, human
TEST CONDITIONS: Homo sapiens, Monocyte, LPS-stimulated human monocytes, TNFα content; read-out: EC50 TNF
REPORTED METRIC: EC50

{"COMPOUND STRUCTURE STRING": "CC(C)(O)[C@H](F)CNC(=O)c1cnc(-c2ccc3cc(C#N)cnn23)cc1NCCCCS(C)(=O)=O", "VALUE REPORTED": "0.135 µM"}
{"COMPOUND STRUCTURE STRING": "Cn1cc(CNc2cc(-c3ccc4cc(C#N)cnn34)ncc2C(=O)NC[C@@H](F)C(C)(C)O)cn1", "VALUE REPORTED": "0.274 µM"}
{"COMPOUND STRUCTURE STRING": "CC(C)(O)[C@H](F)CNC(=O)c1cnc(-c2ccc3cc(C#N)cnn23)cc1Nc1ccnc(F)c1", "VALUE REPORTED": "0.18 µM"}
{"COMPOUND STRUCTURE STRING": "CC(C)(O)[C@H](F)CNC(=O)c1cnc(-c2ccc3cc(C#N)cnn23)cc1N[C@H]1C[C@H](COC(=O)NC2CC2)C1", "VALUE REPORTED": "0.1 µM"}
{"COMPOUND STRUCTURE STRING": "CC(C)(O)[C@H](F)CNC(=O)c1cnc(-c2ccc3cc(C#N)cnn23)cc1N[C@H]1CC[C@H](NC(=O)C2CCOCC2)CC1", "VALUE REPORTED": "0.735 µM"}
{"COMPOUND STRUCTURE STRING": "CC(C)(O)[C@H](F)CNC(=O)c1cnc(-c2ccc3cc(C#N)cnn23)cc1Nc1ccc(-c2c[nH]cn2)cc1", "VALUE REPORTED": "0.033 µM"}
{"COMPOUND STRUCTURE STRING": "CC(C)(O)[C@H](F)CNC(=O)c1cnc(-c2ccc3cc(C#N)cnn23)cc1Nc1ccc(-n2cccn2)nc1", "VALUE REPORTED": "0.05 µM"}

====

A collection of compounds and their measured pIC50
TARGET: UniProtKB Q9NWZ3
Sequence (Q9NWZ3 whole entry): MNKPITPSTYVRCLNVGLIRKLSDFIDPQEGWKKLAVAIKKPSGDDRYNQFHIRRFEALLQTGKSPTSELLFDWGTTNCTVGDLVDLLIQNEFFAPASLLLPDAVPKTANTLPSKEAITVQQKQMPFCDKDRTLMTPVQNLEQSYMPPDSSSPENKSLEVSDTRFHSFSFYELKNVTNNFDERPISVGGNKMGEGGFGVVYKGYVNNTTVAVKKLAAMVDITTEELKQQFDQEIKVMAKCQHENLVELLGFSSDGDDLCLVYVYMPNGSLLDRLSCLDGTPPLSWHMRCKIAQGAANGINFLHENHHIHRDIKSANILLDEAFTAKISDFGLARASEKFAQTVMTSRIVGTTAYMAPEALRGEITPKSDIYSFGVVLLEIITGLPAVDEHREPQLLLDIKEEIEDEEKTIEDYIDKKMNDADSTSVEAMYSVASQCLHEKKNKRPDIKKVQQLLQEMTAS
ASSAY NAME: biochemical
Format: biochemical
TEST CONDITIONS: IRAK4 enzyme, TR-FRET, 500 μM ATP
pIC50: −log10 of the molar value.

{"COMPOUND": "CC(C)(O)[C@H](F)CNC(=O)c1cnc(-c2ccc3cc(C#N)cnn23)cc1NC1CCS(=O)(=O)CC1", "QUALIFIER OPERATOR": "=", "pIC50": 8.52}
{"COMPOUND": "CC(C)(O)[C@H](F)CNC(=O)c1cnc(-c2ccc3cc(C#N)cnn23)cc1Nc1ccc(-n2ccnn2)cc1", "QUALIFIER OPERATOR": ">", "pIC50": 9.00}
{"COMPOUND": "CC(C)Nc1cc(-c2ccc3cc(C#N)cnn23)ncc1C(=O)NC1CC1CO (stereo not shown) [Example 45]", "QUALIFIER OPERATOR": "=", "pIC50": 8.00}
{"COMPOUND": "CN(C)S(=O)(=O)N1CCC(Nc2cc(-c3ccc4cc(C#N)cnn34)ncc2C(=O)NC[C@@H](F)C(C)(C)O)CC1", "QUALIFIER OPERATOR": "=", "pIC50": 9.00}
